B1: Hairpin Ribozyme (parent)
chain: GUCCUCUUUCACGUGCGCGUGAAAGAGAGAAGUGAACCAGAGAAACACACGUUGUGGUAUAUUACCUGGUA

Variants of: B1
Procedure text: self-cleavage, relative activity (ratio to wild type); higher = more cleavage; co-transcriptional
Label true when self-cleavage >= 0.2; otherwise false.

[
  {
    "Mutation key": "A24G C46A",
    "Label value": "false"
  },
  {
    "Mutation key": "G13U U63G",
    "Label value": "true"
  },
  {
    "Mutation key": "C48A G54A",
    "Label value": "false"
  },
  {
    "Mutation key": "A26G C65G",
    "Label value": "true"
  },
  {
    "Mutation key": "G1U A49U",
    "Label value": "false"
  },
  {
    "Mutation key": "A28U G56C",
    "Label value": "false"
  },
  {
    "Mutation key": "G34U C38U",
    "Label value": "true"
  },
  {
    "Mutation key": "G21A A64U",
    "Label value": "false"
  },
  {
    "Mutation key": "U52A U67A",
    "Label value": "true"
  },
  {
    "Mutation key": "A44G U62C",
    "Label value": "false"
  },
  {
    "Mutation key": "C16U C65G",
    "Label value": "true"
  },
  {
    "Mutation key": "A31G U52G",
    "Label value": "true"
  },
  {
    "Mutation key": "C4G A39U",
    "Label value": "false"
  },
  {
    "Mutation key": "A43C C46U",
    "Label value": "false"
  },
  {
    "Mutation key": "C6U U14A",
    "Label value": "true"
  },
  {
    "Mutation key": "C10U A26C",
    "Label value": "true"
  },
  {
    "Mutation key": "A23C G25U",
    "Label value": "false"
  },
  {
    "Mutation key": "C16U U70A",
    "Label value": "true"
  },
  {
    "Mutation key": "C37A A61C",
    "Label value": "false"
  },
  {
    "Mutation key": "C12U C66U",
    "Label value": "true"
  },
  {
    "Mutation key": "C37U A64G",
    "Label value": "true"
  },
  {
    "Mutation key": "U2G U53C",
    "Label value": "true"
  },
  {
    "Mutation key": "A28C A39U",
    "Label value": "false"
  },
  {
    "Mutation key": "U5C U33C",
    "Label value": "false"
  },
  {
    "Mutation key": "G40U G69U",
    "Label value": "false"
  },
  {
    "Mutation key": "A11G G69U",
    "Label value": "true"
  },
  {
    "Mutation key": "G29U U33G",
    "Label value": "false"
  },
  {
    "Mutation key": "A30G C46U",
    "Label value": "true"
  },
  {
    "Mutation key": "G25C C37U",
    "Label value": "true"
  },
  {
    "Mutation key": "G21U A30U",
    "Label value": "false"
  },
  {
    "Mutation key": "A35U U60G",
    "Label value": "true"
  },
  {
    "Mutation key": "A43G G56C",
    "Label value": "false"
  },
  {
    "Mutation key": "U8G C65G",
    "Label value": "true"
  },
  {
    "Mutation key": "A26G A47U",
    "Label value": "false"
  },
  {
    "Mutation key": "A31G A71U",
    "Label value": "true"
  },
  {
    "Mutation key": "G27U A47C",
    "Label value": "false"
  },
  {
    "Mutation key": "U33G U52C",
    "Label value": "false"
  },
  {
    "Mutation key": "U62A G68U",
    "Label value": "true"
  },
  {
    "Mutation key": "U2A A41G",
    "Label value": "false"
  },
  {
    "Mutation key": "A24U G68U",
    "Label value": "true"
  },
  {
    "Mutation key": "G21C A28U",
    "Label value": "true"
  },
  {
    "Mutation key": "C18G G34C",
    "Label value": "true"
  },
  {
    "Mutation key": "U33G G40U",
    "Label value": "false"
  },
  {
    "Mutation key": "A49C G51A",
    "Label value": "false"
  },
  {
    "Mutation key": "A11U U14C",
    "Label value": "true"
  },
  {
    "Mutation key": "G29C U52G",
    "Label value": "false"
  },
  {
    "Mutation key": "A26G U53A",
    "Label value": "true"
  },
  {
    "Mutation key": "U2A G15C",
    "Label value": "true"
  },
  {
    "Mutation key": "G27C A28C",
    "Label value": "false"
  },
  {
    "Mutation key": "C4U G17A",
    "Label value": "true"
  },
  {
    "Mutation key": "G56U C66G",
    "Label value": "true"
  },
  {
    "Mutation key": "A11U A31U",
    "Label value": "false"
  },
  {
    "Mutation key": "G13A U63G",
    "Label value": "false"
  },
  {
    "Mutation key": "G13A A35U",
    "Label value": "true"
  },
  {
    "Mutation key": "C6U G40A",
    "Label value": "true"
  },
  {
    "Mutation key": "C12U U70A",
    "Label value": "true"
  },
  {
    "Mutation key": "G25U C46G",
    "Label value": "false"
  },
  {
    "Mutation key": "U8A A36U",
    "Label value": "true"
  },
  {
    "Mutation key": "G42C A45G",
    "Label value": "false"
  },
  {
    "Mutation key": "A24C G68C",
    "Label value": "true"
  },
  {
    "Mutation key": "G1C U33G",
    "Label value": "true"
  },
  {
    "Mutation key": "A24C C38A",
    "Label value": "true"
  },
  {
    "Mutation key": "U53C U58A",
    "Label value": "true"
  },
  {
    "Mutation key": "A22G U52A",
    "Label value": "true"
  },
  {
    "Mutation key": "G17U U53C",
    "Label value": "true"
  },
  {
    "Mutation key": "C10G U20G",
    "Label value": "true"
  },
  {
    "Mutation key": "U9G A22U",
    "Label value": "true"
  },
  {
    "Mutation key": "U20C A24U",
    "Label value": "true"
  },
  {
    "Mutation key": "U53C U67A",
    "Label value": "true"
  },
  {
    "Mutation key": "C12G G32U",
    "Label value": "false"
  },
  {
    "Mutation key": "C3A U33C",
    "Label value": "false"
  },
  {
    "Mutation key": "A11U G51C",
    "Label value": "true"
  },
  {
    "Mutation key": "G15C C66G",
    "Label value": "false"
  },
  {
    "Mutation key": "U7C G56U",
    "Label value": "false"
  },
  {
    "Mutation key": "G34U U58A",
    "Label value": "true"
  },
  {
    "Mutation key": "U2C G51U",
    "Label value": "false"
  },
  {
    "Mutation key": "A30G A43C",
    "Label value": "false"
  },
  {
    "Mutation key": "A28U A71G",
    "Label value": "true"
  },
  {
    "Mutation key": "A44G U70G",
    "Label value": "false"
  },
  {
    "Mutation key": "U58C U62A",
    "Label value": "true"
  },
  {
    "Mutation key": "U2G U33A",
    "Label value": "false"
  },
  {
    "Mutation key": "U7A A36C",
    "Label value": "true"
  },
  {
    "Mutation key": "C38U A61U",
    "Label value": "false"
  },
  {
    "Mutation key": "G13C A45C",
    "Label value": "false"
  },
  {
    "Mutation key": "C16U G25U",
    "Label value": "true"
  },
  {
    "Mutation key": "C12G G51U",
    "Label value": "true"
  },
  {
    "Mutation key": "A24C A30C",
    "Label value": "true"
  },
  {
    "Mutation key": "A43U G51A",
    "Label value": "true"
  }
]
